// provenance: patent EP0973746B1

Biological target: epidermal growth factor receptor kinase (Homo sapiens)
Sequence (P00533 25-1210): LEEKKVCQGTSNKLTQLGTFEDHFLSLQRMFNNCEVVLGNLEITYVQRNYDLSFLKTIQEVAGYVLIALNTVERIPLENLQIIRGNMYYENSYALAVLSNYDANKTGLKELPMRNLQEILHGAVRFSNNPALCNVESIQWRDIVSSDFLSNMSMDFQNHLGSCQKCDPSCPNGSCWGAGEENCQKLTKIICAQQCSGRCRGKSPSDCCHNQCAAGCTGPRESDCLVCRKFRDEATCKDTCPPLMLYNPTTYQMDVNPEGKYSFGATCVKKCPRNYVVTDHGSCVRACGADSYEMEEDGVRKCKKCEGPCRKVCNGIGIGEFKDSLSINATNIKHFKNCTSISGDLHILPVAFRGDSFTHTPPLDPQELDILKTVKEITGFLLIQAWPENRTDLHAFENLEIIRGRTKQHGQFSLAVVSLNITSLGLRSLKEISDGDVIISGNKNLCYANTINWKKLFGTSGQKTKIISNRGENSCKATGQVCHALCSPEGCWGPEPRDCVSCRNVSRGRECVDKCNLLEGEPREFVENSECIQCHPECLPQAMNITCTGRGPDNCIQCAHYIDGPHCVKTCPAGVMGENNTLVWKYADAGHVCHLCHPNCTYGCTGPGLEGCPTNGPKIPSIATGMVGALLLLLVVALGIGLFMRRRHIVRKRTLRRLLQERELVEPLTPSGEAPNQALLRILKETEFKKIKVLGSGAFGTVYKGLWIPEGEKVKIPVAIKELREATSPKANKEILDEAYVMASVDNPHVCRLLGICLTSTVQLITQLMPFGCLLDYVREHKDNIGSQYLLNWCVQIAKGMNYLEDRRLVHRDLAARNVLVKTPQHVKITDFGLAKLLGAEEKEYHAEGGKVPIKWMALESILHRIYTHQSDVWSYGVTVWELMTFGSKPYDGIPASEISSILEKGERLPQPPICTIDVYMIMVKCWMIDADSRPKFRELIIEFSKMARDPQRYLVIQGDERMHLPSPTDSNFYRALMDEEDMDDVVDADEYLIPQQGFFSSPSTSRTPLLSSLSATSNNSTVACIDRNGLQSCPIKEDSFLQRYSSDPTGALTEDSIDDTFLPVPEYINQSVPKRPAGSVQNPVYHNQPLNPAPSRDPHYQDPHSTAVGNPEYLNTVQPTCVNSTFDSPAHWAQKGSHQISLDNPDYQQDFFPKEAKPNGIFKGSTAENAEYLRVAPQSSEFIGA
As shown below, each of these compounds has a reported IC50 value.

- smilesNotation: "CC#CC(=O)Nc1ccc2ncc(C#N)c(Nc3ccc(Br)c(Br)c3)c2c1"
  measurementUnit: "nM"
  IC50: 3000
- smilesNotation: "CC(=O)Nc1ccc2ncc(C#N)c(Nc3cccc(Br)c3)c2c1"
  measurementUnit: "nM"
  IC50: 1.5
- smilesNotation: "COc1cc2ncc(C#N)c(Nc3cccc(Br)c3)c2cc1OC"
  measurementUnit: "nM"
  IC50: 1.5
- smilesNotation: "CCCC(=O)Nc1ccc2ncc(C#N)c(Nc3cccc(Br)c3)c2c1"
  measurementUnit: "nM"
  IC50: 9000
- smilesNotation: "CC#CC(=O)Nc1ccc2ncc(C#N)c(Nc3cccc(Br)c3)c2c1"
  measurementUnit: "nM"
  IC50: 0.6

====

System: A27805
Assay: Inhibition of cancer cell growth as measured by cell number, A27805
Type: cell-based
Settings: Homo sapiens; cell number, Sulforhodamine B, 48 hours exposure; Table 4; read-out: IC50 A27805
As shown below, each of these compounds has a reported IC50 value.

- smilesNotation: "COc1cc2ncc(C#N)c(Nc3cccc(Br)c3)c2cc1OC"
  IC50 (µg/mL): 2.03
- smilesNotation: "CC(=O)Nc1ccc2ncc(C#N)c(Nc3cccc(Br)c3)c2c1"
  IC50 (µg/mL): 0.602
- smilesNotation: "COc1cc2ncc(C#N)c(NC3CCCCC3)c2cc1OC"
  IC50 (µg/mL): 4.58
- smilesNotation: "CC#CC(=O)Nc1ccc2ncc(C#N)c(Nc3ccc(Br)c(Br)c3)c2c1"
  IC50 (µg/mL): 0.0567
- smilesNotation: "CCCC(=O)Nc1ccc2ncc(C#N)c(Nc3cccc(Br)c3)c2c1"
  IC50 (µg/mL): 9.8
- smilesNotation: "COc1cc2ncc(C#N)c(Sc3ccc(Br)cc3)c2cc1OC"
  IC50 (µg/mL): 4.68

====

System: CCL228
Assay: Inhibition of cancer cell growth as measured by cell number, CCL228
Type: cell-based
Settings: Homo sapiens, 48 h, read-out: IC50 CCL228
As shown below, each of these molecules has a reported IC50 value.

- molecule: "N#Cc1cnc2ccc(N)cc2c1Nc1cccc(Br)c1 [Example 14]"
  measurementUnit: "µg/mL"
  comparativeSign: "="
  IC50: 39.4
- molecule: "COc1cc2ncc(C#N)c(Nc3cccc(Cl)c3)c2cc1OC [Example 41]"
  measurementUnit: "µg/mL"
  comparativeSign: "="
  IC50: 18.5
- molecule: "C=CC(=O)Nc1ccc2ncc(C#N)c(Nc3cccc(Br)c3)c2c1 [Example 18]"
  measurementUnit: "µg/mL"
  comparativeSign: "="
  IC50: 1.17
- molecule: "CCOc1cc2ncc(C#N)c(Nc3cccc(Br)c3)c2cc1OCC [Example 47]"
  measurementUnit: "µg/mL"
  comparativeSign: "="
  IC50: 0.0715
- molecule: "COc1ccc(Nc2c(C#N)cnc3cc(OC)c(OC)cc23)cc1OC [Example 43]"
  measurementUnit: "µg/mL"
  comparativeSign: "="
  IC50: 2.56
- molecule: "C=CC(=O)Nc1cc2c(Nc3cccc(Br)c3)c(C#N)cnc2cc1OC [Example 9]"
  measurementUnit: "µg/mL"
  comparativeSign: "="
  IC50: 0.707
- molecule: "COc1cc2ncc(C#N)c(Oc3cccc(Br)c3)c2cc1OC [Example 49]"
  measurementUnit: "µg/mL"
  comparativeSign: "="
  IC50: 99
- molecule: "CC#CC(=O)Nc1ccc2ncc(C#N)c(Nc3cccc(Br)c3)c2c1 [Example 15]"
  measurementUnit: "µg/mL"
  comparativeSign: ">"
  IC50: 33
- molecule: "COc1cc2ncc(C#N)c(Nc3cccc(Br)c3)c2cc1N [Example 7]"
  measurementUnit: "µg/mL"
  comparativeSign: "="
  IC50: 6.25

====

As shown below, each of these compounds has a reported IC50 value.
Molecular target: His-tagged cytoplasmic domain of EGFR (Homo sapiens, UniProt P00533)
Construct: containing the EGFR cDNA encoding amino acids 645 - 1186 preceded by Met-Ala-(His)6; made in house; host or cells: Sf9 cells, recombinant baculovirus vHcEGFR52
Sequence (P00533 669-1210): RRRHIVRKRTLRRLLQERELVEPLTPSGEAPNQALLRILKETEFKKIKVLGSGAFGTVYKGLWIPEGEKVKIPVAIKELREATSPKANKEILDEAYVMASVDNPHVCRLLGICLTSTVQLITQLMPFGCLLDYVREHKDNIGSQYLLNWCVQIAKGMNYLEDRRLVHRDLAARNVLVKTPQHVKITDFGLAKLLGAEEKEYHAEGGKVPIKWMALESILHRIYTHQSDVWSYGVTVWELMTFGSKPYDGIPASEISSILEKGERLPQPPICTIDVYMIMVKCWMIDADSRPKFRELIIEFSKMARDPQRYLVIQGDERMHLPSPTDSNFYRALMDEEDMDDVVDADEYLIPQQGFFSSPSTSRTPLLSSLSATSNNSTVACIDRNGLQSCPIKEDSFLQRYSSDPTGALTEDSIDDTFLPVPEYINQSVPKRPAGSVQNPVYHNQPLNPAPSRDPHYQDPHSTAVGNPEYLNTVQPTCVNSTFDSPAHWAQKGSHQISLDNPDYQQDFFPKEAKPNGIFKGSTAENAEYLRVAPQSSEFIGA
Experiment: Inhibition of Epidermal Growth Factor Receptor Kinase (EGF-R) using recombinant enzyme
Format: biochemical
Conditions: recombinant enzyme; RR-SRC peptide; average of the number of tests; read-out: IC50

- smilesNotation: "C=C(CN1CCOCC1)C(=O)Nc1ccc2ncc(C#N)c(Nc3cccc(Br)c3)c2c1"
  measurementUnit: "nM"
  IC50: 6.5
- smilesNotation: "COc1cccc(Nc2c(C#N)cnc3ccc(NC(=O)C#CCN4CCCCC4)cc23)c1"
  measurementUnit: "nM"
  IC50: 0.6
- smilesNotation: "Cc1cccc(Nc2c(C#N)cnc3ccc(N)cc23)c1"
  measurementUnit: "nM"
  IC50: 6
- smilesNotation: "C#Cc1cccc(Nc2c(C#N)cnc3ccc(NC(=O)C=C)cc23)c1"
  measurementUnit: "nM"
  IC50: 0.5
- smilesNotation: "C#Cc1cccc(Nc2c(C#N)cnc3ccc(NC(=O)C#CC)cc23)c1"
  measurementUnit: "nM"
  IC50: 90
- smilesNotation: "COCC#CC(=O)Nc1ccc2ncc(C#N)c(Nc3cccc(Br)c3)c2c1"
  measurementUnit: "nM"
  IC50: 0.28
- smilesNotation: "CNCC=CC(=O)Nc1ccc2ncc(C#N)c(Nc3cccc(Br)c3)c2c1"
  measurementUnit: "nM"
  IC50: 100
- smilesNotation: "COc1cc2ncc(C#N)c(Nc3ccc(Cl)cc3F)c2cc1N"
  measurementUnit: "nM"
  IC50: 500
- smilesNotation: "COc1cc(NC(=O)C=CCN(C)C)cc2c(Nc3cccc(Br)c3)c(C#N)cnc12"
  measurementUnit: "nM"
  IC50: 1000

====

As shown below, each of these compounds has a reported IC50 value.
Test system: SW620
Experiment: Inhibition of cancer cell growth as measured by cell number, SW620;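 further: SW620 was included as a cell line with little or no EGFR or HER2/neu expression, in contrast to receptor-overexpressing lines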
Assay type: cell-based, human
Settings: Homo sapiens, SW-620, 48 h, read-out: IC50 SW620, cell number, Sulforhodamine B, 48 hours exposure; Table 4

- smilesNotation: "CCOc1cc2ncc(C#N)c(Nc3cccc(Br)c3)c2cc1OCC"
  comparativeSign: "="
  IC50 / µg/mL: 0.0672
- smilesNotation: "CC#CC(=O)Nc1cc2c(Nc3cccc(Br)c3)c(C#N)cnc2cc1OC"
  comparativeSign: "="
  IC50 / µg/mL: 2.5
- smilesNotation: "COc1cc2ncc(C#N)c(Nc3cccc(Br)c3)c2cc1[N+](=O)[O-]"
  comparativeSign: "="
  IC50 / µg/mL: 4.71
- smilesNotation: "COc1cc2ncc(C#N)c(Nc3cccc(Cl)c3)c2cc1OC"
  comparativeSign: "="
  IC50 / µg/mL: 14.7
- smilesNotation: "COc1cc2ncc(C#N)c(Nc3cccc(CO)c3)c2cc1OC"
  comparativeSign: ">"
  IC50 / µg/mL: 100

====

As shown below, each of these molecules has a reported IC50 value.
Target: His-tagged cytoplasmic domain of EGFR (Homo sapiens)
Construct: containing the EGFR cDNA encoding amino acids 645 - 1186 preceded by Met-Ala-(His)6; made in house; host or cells: Sf9 cells, recombinant baculovirus vHcEGFR52
Assay: Inhibition of Epidermal Growth Factor Receptor Kinase (EGF-R) using recombinant enzyme;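 further: radiometric kinase assay measuring radiolabeled phosphate transfer from ATP onto the peptide tyrosine by scintillation counting, control is reaction without compound, background subtracted, IC50 from dose-response curve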
Format: biochemical
Settings: recombinant enzyme; RR-SRC peptide; average of the number of tests; read-out: IC50

- smilesNotation: "CN(C)C/C=C\\C(=O)Nc1ccc2ncc(C#N)c(Nc3ccc(F)c(Cl)c3)c2c1"
  assaySystem: "His-tagged cytoplasmic domain of EGFR (Homo sapiens)"
  IC50 / nM: 1700
- smilesNotation: "CC#CC(=O)Nc1ccc2ncc(C#N)c(Nc3cccc(OC)c3)c2c1"
  assaySystem: "His-tagged cytoplasmic domain of EGFR (Homo sapiens)"
  IC50 / nM: 500
- smilesNotation: "CCN(CC)CC=CC(=O)Nc1cc2c(Nc3cccc(Br)c3)c(C#N)cnc2cc1OC"
  assaySystem: "His-tagged cytoplasmic domain of EGFR (Homo sapiens)"
  IC50 / nM: 0.5

====

Tested on: A431
Test: Inhibition of cell growth by incorporation of [3H]-thymidine, A431
Assay type: cell-based, human
Details: [3H]-thymidine incorporation; A431; read-out: IC50 A431
measurementType: IC50 (nM)

- smilesNotation: "CCOC(=O)c1cnc2cc(OC)c(OC)cc2c1O"
  val: 100

====

Biological target: recombinant human MEK 1 (MAPKK) and recombinant human ERK2 (MAPK)
Experiment: Mitogen Activated Protein Kinase (MAPK) assay, two component coupled MEK 1 / ERK2;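 further: MEK 1-activated ERK2 phosphorylates MBP or Myc peptide with 33P-ATP, filter capture and scintillation counting, inhibitor preincubated with ERK2 30 min at 0 °C, inhibition relative to uninhibited control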
Conditions: separate entries for the same compound = evaluated more than one time
pIC50: −log10 of the molar value.
Label criterion met when pIC50 >= 5; otherwise criterion not met.

- molecule: "CC(C)c1cccc(Nc2c(C#N)cnc3ccc([N+](=O)[O-])cc23)c1 [Example 357]"
  assaySystem: "recombinant human MEK 1 (MAPKK) and recombinant human ERK2 (MAPK)"
  category: "criterion not met"
- molecule: "COc1cc2ncc(C#N)c(Nc3cc(O)c(Cl)cc3F)c2cc1OC [Example 319]"
  assaySystem: "recombinant human MEK 1 (MAPKK) and recombinant human ERK2 (MAPK)"
  category: "criterion met"
- molecule: "C#Cc1cccc(Nc2c(C#N)cnc3ccc(NC(=O)C#CCN4CCCCC4)cc23)c1 [Example 166]"
  assaySystem: "recombinant human MEK 1 (MAPKK) and recombinant human ERK2 (MAPK)"
  category: "criterion not met"
- molecule: "CCCC(=O)Nc1ccc2ncc(C#N)c(Nc3cccc(Br)c3)c2c1 [Example 17]"
  assaySystem: "recombinant human MEK 1 (MAPKK) and recombinant human ERK2 (MAPK)"
  category: "criterion not met"
- molecule: "COc1cc2ncc(C#N)c(Nc3ccc(O)cc3Cl)c2cc1OC [Example 296]"
  assaySystem: "recombinant human MEK 1 (MAPKK) and recombinant human ERK2 (MAPK)"
  category: "criterion met"
- molecule: "CCN(CC)CC=CC(=O)Nc1ccc2ncc(C#N)c(Nc3cccc(Br)c3)c2c1 [Example 100]"
  assaySystem: "recombinant human MEK 1 (MAPKK) and recombinant human ERK2 (MAPK)"
  category: "criterion not met"
- molecule: "CC#CC(=O)Nc1ccc2ncc(C#N)c(Nc3cccc(N(C)C)c3)c2c1 [Example 393]"
  assaySystem: "recombinant human MEK 1 (MAPKK) and recombinant human ERK2 (MAPK)"
  category: "criterion not met"
- molecule: "CCN(CC)CC=CC(=O)Nc1ccc2ncc(C#N)c(Nc3ccc(F)c(Cl)c3)c2c1 [Example 146]"
  assaySystem: "recombinant human MEK 1 (MAPKK) and recombinant human ERK2 (MAPK)"
  category: "criterion met"
- molecule: "COc1cc2ncc(C#N)c(Nc3cc(O)c(Cl)cc3F)c2cc1OCCCN1CCOCC1 [Example 323]"
  assaySystem: "recombinant human MEK 1 (MAPKK) and recombinant human ERK2 (MAPK)"
  category: "criterion not met"
- molecule: "CNCC=CC(=O)Nc1ccc2ncc(C#N)c(Nc3cccc(Br)c3)c2c1 [Example 101]"
  assaySystem: "recombinant human MEK 1 (MAPKK) and recombinant human ERK2 (MAPK)"
  category: "criterion not met"
- molecule: "COc1cc2ncc(C#N)c(Nc3ccc(O)cc3C)c2cc1OC [Example 292]"
  assaySystem: "recombinant human MEK 1 (MAPKK) and recombinant human ERK2 (MAPK)"
  category: "criterion not met"
